- tgt: HSF1-ΔLZ4-TAD (human, UniProt Q00613 1-383)
- Sequence (Q00613 1-383, stated change not applied): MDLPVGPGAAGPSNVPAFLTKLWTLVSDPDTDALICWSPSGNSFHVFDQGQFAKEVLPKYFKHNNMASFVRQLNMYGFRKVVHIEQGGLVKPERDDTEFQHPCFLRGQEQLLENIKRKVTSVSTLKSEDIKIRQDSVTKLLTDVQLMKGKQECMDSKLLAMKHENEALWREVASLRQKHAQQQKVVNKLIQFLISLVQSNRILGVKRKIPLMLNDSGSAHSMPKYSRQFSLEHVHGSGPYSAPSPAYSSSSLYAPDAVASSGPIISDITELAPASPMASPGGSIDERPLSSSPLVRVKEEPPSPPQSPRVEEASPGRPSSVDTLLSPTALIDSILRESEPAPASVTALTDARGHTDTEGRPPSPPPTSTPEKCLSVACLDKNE
- experiment.description: fluorescence polarization
reported.metric: pKd
Keep it numeric: pKd is minus log10 of the concentration in mol/L.

Short answer for HSE (canonical three-site) (dsDNA) DNA 1: CCTGGAATATTCCCGAACTGGC DNA 2: GCCAGTTCGGGAATATTCCAGG : pKd was 7.65
